test: chemical genetic growth profiling, strain panel (AID 1159580);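 further: tested at 20 µM; growth read once vehicle control cultures reached saturation at 30 °C; 1 = growth at the plate median or of vehicle wells; lower values mean less growth of the strain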; conditions: S. cerevisiae deletion strains, growth OD, locus YGL227W, strain vid30, hits give low values
Hit rate of the full screen: of about 5,500 compounds, about 2,000 (36%) were called active. Not shown: some 18% with an inconclusive outcome. This is one part of the list.
Measured quantity: normalized growth
One number for each entry.

| Compound | Measured quantity | Reported measurement |
| --- | --- | --- |
| CNS(=O)(=O)Cc1ccc2[nH]cc(CCN(C)C)c2c1 | normalized growth | 1.03 |
| CN1C(=O)CCS(=O)(=O)C1c1ccc(Cl)cc1 (stereo not drawn) | normalized growth | 0.98 |
| CC(=O)OC[C@H]1O[C@@H](Oc2cc(OC(C)=O)c3c(=O)cc(-c4ccc(OC(C)=O)cc4)oc3c2)[C@H](OC(C)=O)[C@@H](OC(C)=O)[C@@H]1OC(C)=O | normalized growth | 0.995 |

Give normalized growth for all compounds that follow.
1. COc1cc2c(cc1O)CCNC2C (stereo not drawn)
2. Cc1cc(C(C)(C)C)cc(C)c1CC1=NCCN1
3. O=C(NC1CCCCC1)NC1CCCCC1
4. O=C(OC[C@H]1O[C@H](OC(=O)c2cc(O)c(O)c(OC(=O)c3cc(O)c(O)c(O)c3)c2)[C@H](OC(=O)c2cc(O)c(O)c(OC(=O)c3cc(O)c(O)c(O)c3)c2)[C@@H](OC(=O)c2cc(O)c(O)c(OC(=O)c3cc(O)c(O)c(O)c3)c2)[C@@H]1OC(=O)c1cc(O)c(O)c(OC(=O)c2cc(O)c(O)c(O)c2)c1)c1cc(O)c(O)c(OC(=O)c2cc(O)c(O)c(O)c2)c1
5. Cc1cc(C(C)(C)C)c(O)c(C)c1CC1=NCCN1

0.993
1
0.972
1
1

---

test: chemical genetic growth profiling, strain panel (AID 1159580);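 further: tested at 20 µM; growth read once vehicle control cultures reached saturation at 30 °C; 1 = growth at the plate median or of vehicle wells; lower values mean less growth of the strain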; settings: S. cerevisiae deletion strains, growth OD, locus YDR335W, strain msn5, hits give low values
Out of some 5,500 compounds screened, about 2,000 (36%) were called active. Inconclusive results (about 18%) are left out. Some of the results follow.
Cut-off 1 on normalized growth: below means true (1), at or above means false (0).

Below are worked cases with known answers.
| Chemical smiles | Label value |
| --- | --- |
| CC1=C(O)C(=O)C=C2C1=CC=C1[C@@]2(C)CC[C@@]2(C)[C@@H]3C[C@](C)(C(=O)O)CC[C@]3(C)CC[C@]12C | true (1) |
| CCOc1cccc(C(=O)c2ccc(O)c(O)c2O)c1 | true (1) |
| CO[C@@]1(NC(=O)Cc2cccs2)C(=O)N2C(C(=O)O)=C(COC(N)=O)CS[C@@H]21 | true (1) |
| CC(=O)Oc1ccccc1C(=O)O | false (0) |

Now let's try a different one.
Does `COC(=O)[C@]1(C)CC[C@]2(C)CC[C@]3(C)C4=CC=C5C(=CC(=O)C(O)=C5C)[C@]4(C)CC[C@@]3(C)[C@@H]2C1` have normalized growth strictly under 1?
true (1)

---

assay: chemical genetic growth profiling, strain panel (AID 1159580);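 further: tested at 20 µM; growth read once vehicle control cultures reached saturation at 30 °C; 1 = growth at the plate median or of vehicle wells; lower values mean less growth of the strain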; settings: S. cerevisiae deletion strains, growth OD, locus YLR113W, strain HOG1, hits give low values
About 2,000 (36%) of roughly 5,500 compounds were called active. Another 18% or so got no clear call; they are omitted. The list shows a part of the results.
Cut-off 1 on normalized growth: below means 1 (yes), at or above means 0 (no).

Below are worked cases with known answers.
| Molecule | Label value |
| --- | --- |
| C#C[C@]1(O)CCC2C3CCC4=Cc5oncc5C[C@]4(C)C3CC[C@@]21C (stereo not given in full) | 1 (yes) |
| C#CC1(O)CCC2C3CCC4=CC(=O)CCC4(C)C3CCC21C (stereo not given) | 0 (no) |

Does CC(=O)[C@@]12O[C@](C)(c3ccccc3)O[C@@H]1CC1C3CCC4=CC(=O)CC[C@]4(C)C3CC[C@@]12C (stereo not given in full) have normalized growth strictly under 1?
1 (yes)
